# PROTOCOL NOTES: CR6086 pharmacokinetics in rats
# Type: in vivo, rat
# RECORDED CONDITIONS: rat, plasma; oral, 10 mg/kg
QUANTITY NAME: Cmax (ng/mL)
Answers are plain numbers, in ng/mL.

Entry under review: `O=C([O-])c1ccc(C2(NC(=O)[C@H]3CC4(CCN3Cc3ccc(C(F)(F)F)cc3)CC4)CC2)cc1.[Na+]` . Reported Cmax?
14500

* * *

# TARGET SYSTEM: human EP4 receptor (Homo sapiens)
# Construct: expressed in transfected cells
# Sequence (P35408 whole entry): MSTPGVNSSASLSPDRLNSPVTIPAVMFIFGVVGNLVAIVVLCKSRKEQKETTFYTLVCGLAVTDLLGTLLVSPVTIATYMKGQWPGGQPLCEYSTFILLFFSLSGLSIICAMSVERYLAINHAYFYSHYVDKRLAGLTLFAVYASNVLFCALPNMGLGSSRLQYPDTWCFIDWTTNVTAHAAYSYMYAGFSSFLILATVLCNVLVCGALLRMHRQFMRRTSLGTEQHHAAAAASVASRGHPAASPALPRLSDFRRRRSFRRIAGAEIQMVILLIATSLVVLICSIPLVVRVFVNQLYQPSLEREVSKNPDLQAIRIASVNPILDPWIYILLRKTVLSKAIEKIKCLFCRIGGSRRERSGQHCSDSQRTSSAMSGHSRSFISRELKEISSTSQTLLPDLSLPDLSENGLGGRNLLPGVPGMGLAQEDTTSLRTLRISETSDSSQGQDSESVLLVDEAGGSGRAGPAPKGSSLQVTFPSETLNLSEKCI
# PROTOCOL NOTES: EP4 radioligand binding assay ([^3H]PGE2), human receptor
# RECORDED CONDITIONS: [^3H]PGE2 displacement; HEK293 membranes; absence of BSA; read-out: Ki CR6086
QUANTITY NAME: pKi
One number for each entry, as −log10 of the molar value.

Entry under review: `O=C([O-])c1ccc(C2(NC(=O)[C@H]3CC4(CCN3Cc3ccc(C(F)(F)F)cc3)CC4)CC2)cc1.[Na+]` . Reported pKi?
7.78

* * *

# PROTOCOL NOTES: CR6086 pharmacokinetics in rats
# Format: in vivo, rat
# RECORDED CONDITIONS: rat, plasma; oral, 1 mg/kg; AUC4 for the dose of 1 mg/kg; read-out: AUC24
QUANTITY NAME: AUC (ng·h/mL)
One number for each entry, in ng·h/mL.

Entry under review: `O=C([O-])c1ccc(C2(NC(=O)[C@H]3CC4(CCN3Cc3ccc(C(F)(F)F)cc3)CC4)CC2)cc1.[Na+]` . Reported AUC?
2170

* * *

# PROTOCOL NOTES: CR6086 pharmacokinetics in rats
# Format: in vivo, rat
# RECORDED CONDITIONS: rat, plasma; oral, 10 mg/kg; median
QUANTITY NAME: Tmax
Answer format reminder: number followed by unit.

Entry under review: `O=C([O-])c1ccc(C2(NC(=O)[C@H]3CC4(CCN3Cc3ccc(C(F)(F)F)cc3)CC4)CC2)cc1.[Na+]` . Reported Tmax?
30 min

* * *

# Tested on: IL-6 gene expression
# PROTOCOL NOTES: IL-6 gene expression in THP-1 cells differentiated to macrophages
# Assay type: cell-based
# RECORDED CONDITIONS: Homo sapiens, LPS 10 ng/ml + PGE2 10 nM, read-out: IC50 transcription of IL-6
# Procedure: The human monocyte cell line THP-1 was obtained from the ATCC and was grown according to the instructions provided. THP-1 monocytic cells were differentiated to macrophages with 100 nM phorbol 12-myristate 13-acetate (PMA) for 4 days. […] The data analysis, with normalisation on 18S amplified values, was done following Thermo Fisher Scientific’s specific instructions for gene expression relative quantification. […]
QUANTITY NAME: pIC50
Numbers only, as −log10 of the molar value.

Entry under review: `O=C([O-])c1ccc(C2(NC(=O)[C@H]3CC4(CCN3Cc3ccc(C(F)(F)F)cc3)CC4)CC2)cc1.[Na+]` . Reported pIC50?
7.15

* * *

# PROTOCOL NOTES: CR6086 pharmacokinetics in rats
# Format: in vivo, rat
# RECORDED CONDITIONS: rat, plasma; oral, 15 mg/kg
QUANTITY NAME: Cmax (ng/mL)
Answers are plain numbers, in ng/mL.

Entry under review: `O=C([O-])c1ccc(C2(NC(=O)[C@H]3CC4(CCN3Cc3ccc(C(F)(F)F)cc3)CC4)CC2)cc1.[Na+]` . Reported Cmax?
11900

Hey, just so you know, these numbers are from paper PMC5831858.
